protocol: Cytotoxicity against mouse RAW264.7 cells assessed as cell viability by AlamarBlue assay
Format: cell-based
Set-up: concentration or dose not given beside the values
test_context: read-out: Activity
experimental_readout: viability (%)
Give bare numbers, in %.

Please review the following examples before continuing.
N=C(NCCC[C@H](N)C(=O)O)N[N+](=O)[O-] | 102
CO[C@H]1[C@@H](OC(=O)/C=C/[C@@H](O)[C@H](C)O)CC[C@@](O)(CCl)[C@@H]1[C@]1(C)O[C@H]1CC=C(C)C | 99.2
CO[C@H]1[C@@H](OC(=O)/C=C/[C@H]2O[C@H]2C)CC[C@@]2(CO2)[C@@H]1[C@]1(C)O[C@H]1CC=C(C)C | 98.7
CO[C@H]1[C@@H](OC(=O)/C=C/[C@H]2O[C@@H]2C)CC[C@@]2(O)CO[C@@](C)(C(O)CC=C(C)C)[C@H]12 (some centres not stated) | 92.2
CC/C(O)=C/C=C(\O)C1=C(C)C(=O)[C@@]2(O1)C(=O)N[C@](OC)(C(=O)c1ccccc1)[C@H]2O | 97.6

For every item in the list below, what is its measured viability?
1. N=C(N)NN
2. CO[C@H]1[C@@H](OC(=O)/C=C/[C@H]2O[C@H]2C)CC[C@@](O)(CCl)[C@@H]1[C@]1(C)O[C@H]1CC=C(C)C
3. CO[C@H]1[C@@H](OC(=O)/C=C/[C@@H](O)[C@H](C)O)CC[C@@]2(CO2)[C@@H]1[C@@]1(C)O[C@H]1CC=C(C)C

# output
[99.2, 101, 97.6]

For every item in the list below, what is its measured viability?
1. CC/C=C\[C@H](O)[C@H](O)C1=C(C)C(=O)[C@]2(O1)C(=O)N[C@@](OC)(C(=O)c1ccccc1)[C@@H]2O
2. CC/C=C\[C@H](O)[C@H](O)C1=C(C)C(=O)[C@]2(O1)C(=O)N[C@@](OC)(C(=O)c1ccccc1)[C@H]2O
3. C=C1CC[C@H](OC(=O)/C=C/[C@@H](O)[C@H](C)O)[C@H](OC)[C@H]1[C@@]1(C)O[C@H]1CC=C(C)C
4. CC/C=C\[C@H](O)[C@H](O)C1=C(C)C(=O)[C@]2(O1)C(=O)N[C@](OC)(C(=O)c1ccccc1)[C@H]2O

# output
1: 103; 2: 99.3; 3: 93; 4: 100

---

Tested on: RAW264.7
protocol: Antiinflammatory activity in mouse RAW264.7 cells assessed as inhibition of LPS-stimulated nitric oxide production at 100 uM compound treated prior to LPS challenge by Griess assay
Assay type: functional
experimental_readout: Emax at 100 µM (%)
Give bare numbers, in %.

CO[C@H]1[C@@H](OC(=O)/C=C/[C@@H](O)[C@H](C)O)CC[C@@]2(CO2)[C@@H]1[C@@]1(C)O[C@H]1CC=C(C)C | 100
CO[C@H]1[C@@H](OC(=O)/C=C/[C@@H](O)[C@H](C)O)CC[C@@](O)(CCl)[C@@H]1[C@]1(C)O[C@H]1CC=C(C)C | 87.9
CC/C=C\[C@H](O)[C@H](O)C1=C(C)C(=O)[C@]2(O1)C(=O)N[C@@](OC)(C(=O)c1ccccc1)[C@H]2O | 67.2

# ---- query compound ----
# input Given the compound CC/C(O)=C/C=C(\O)C1=C(C)C(=O)[C@@]2(O1)C(=O)N[C@](OC)(C(=O)c1ccccc1)[C@H]2O , what is its reported Emax at 100 µM?
# output 63.1

---

Tested on: RAW264.7
protocol: Antiinflammatory activity in mouse RAW264.7 cells assessed as inhibition of LPS-stimulated nitric oxide production compound treated prior to LPS challenge by Griess assay
Type: functional, cell-based
I'd appreciate it if you marked entries class 1 when IC50 is lower than 20 µM and class 0 when it is not.

Consider the following illustrative entries.
N=C(N)NN | class 0
C=C1CC[C@H](OC(=O)/C=C/[C@@H](O)[C@H](C)O)[C@H](OC)[C@H]1[C@@]1(C)O[C@H]1CC=C(C)C | class 0
CO[C@H]1[C@@H](OC(=O)/C=C/[C@H]2O[C@H]2C)CC[C@@](O)(CCl)[C@@H]1[C@]1(C)O[C@H]1CC=C(C)C | class 1

# input Find out if reported IC50 for CO[C@H]1[C@@H](OC(=O)/C=C/[C@H]2O[C@@H]2C)CC[C@@]2(O)CO[C@@](C)(C(O)CC=C(C)C)[C@H]12 (some centres not stated) is less than 20 µM
# output class 0

# input Find out if reported IC50 for CC/C=C\[C@H](O)[C@H](O)C1=C(C)C(=O)[C@]2(O1)C(=O)N[C@@](OC)(C(=O)c1ccccc1)[C@H]2O is less than 20 µM
# output class 0

# input Find out if reported IC50 for CC/C=C\[C@H](O)[C@H](O)C1=C(C)C(=O)[C@]2(O1)C(=O)N[C@](OC)(C(=O)c1ccccc1)[C@H]2O is less than 20 µM
# output class 0

# input Find out if reported IC50 for CO[C@H]1[C@@H](OC(=O)/C=C/[C@H]2O[C@H]2C)CC[C@@]2(CO2)[C@@H]1[C@]1(C)O[C@H]1CC=C(C)C is less than 20 µM
# output class 1

---

For each entry below, report its Emax at 100 µM value.
Tested on: RAW264.7
protocol: Antiinflammatory activity in mouse RAW264.7 cells assessed as inhibition of LPS-stimulated nitric oxide production at 100 uM compound treated prior to LPS challenge by Griess assay
Assay type: functional
Answers are plain numbers, in %.

Please review the following examples before continuing.
CO[C@H]1[C@@H](OC(=O)/C=C/[C@H]2O[C@H]2C)CC[C@@]2(CO2)[C@@H]1[C@]1(C)O[C@H]1CC=C(C)C | 100
N=C(N)NN | 83.7
CC/C=C\[C@H](O)[C@H](O)C1=C(C)C(=O)[C@]2(O1)C(=O)N[C@](OC)(C(=O)c1ccccc1)[C@H]2O | 78.2
C=C1CC[C@H](OC(=O)/C=C/[C@@H](O)[C@H](C)O)[C@H](OC)[C@H]1[C@@]1(C)O[C@H]1CC=C(C)C | 80.8
CO[C@H]1[C@@H](OC(=O)/C=C/[C@H]2O[C@@H]2C)CC[C@@]2(O)CO[C@@](C)(C(O)CC=C(C)C)[C@H]12 (stereo partly drawn) | 93.4

For every item in the list below, what is its measured Emax at 100 µM?
1. N=C(NCCC[C@H](N)C(=O)O)N[N+](=O)[O-]
2. CC/C=C\[C@H](O)[C@H](O)C1=C(C)C(=O)[C@]2(O1)C(=O)N[C@@](OC)(C(=O)c1ccccc1)[C@@H]2O
3. CO[C@H]1[C@@H](OC(=O)/C=C/[C@H]2O[C@H]2C)CC[C@@](O)(CCl)[C@@H]1[C@]1(C)O[C@H]1CC=C(C)C

# output
1: 42.1; 2: 38.8; 3: 100
